# Tested system: T1, recombinant human EphA5 (rhEphA5) antigen (human, UniProt P54756 25-573)
# T1 construct: also called human EphA5 (R and D systems, Cat. No. 3036-A5); recombinant EphA5
# T1 sequence (P54756 25-573 limits assumed): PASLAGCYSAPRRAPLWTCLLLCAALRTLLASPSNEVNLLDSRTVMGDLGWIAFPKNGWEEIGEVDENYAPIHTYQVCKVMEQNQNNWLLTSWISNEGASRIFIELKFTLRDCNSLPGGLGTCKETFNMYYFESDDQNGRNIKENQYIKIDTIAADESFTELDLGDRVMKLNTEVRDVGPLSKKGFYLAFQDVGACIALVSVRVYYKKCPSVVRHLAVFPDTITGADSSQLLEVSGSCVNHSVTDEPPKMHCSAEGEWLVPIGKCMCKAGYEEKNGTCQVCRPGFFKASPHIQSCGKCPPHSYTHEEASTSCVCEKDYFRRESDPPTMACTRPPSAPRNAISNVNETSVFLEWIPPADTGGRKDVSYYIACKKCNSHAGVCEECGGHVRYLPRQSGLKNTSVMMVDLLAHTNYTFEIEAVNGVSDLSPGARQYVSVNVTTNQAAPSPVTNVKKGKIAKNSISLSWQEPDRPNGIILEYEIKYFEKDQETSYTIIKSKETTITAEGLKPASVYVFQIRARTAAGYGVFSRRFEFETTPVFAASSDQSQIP
# Test name: SPR single-cycle kinetics (Biacore T200), IgG from HEK supernatant captured on anti-human IgG CM5 chip, rhEphA5 as analyte, 1:1 fit
Reported property: koff (s⁻¹)
Reply numerically in s⁻¹, unit not repeated.

Previously resolved entries follow.
- Binder: "VH6/VK5 humanized 11C12 antibody (antibody, human IgG1, kappa, V domains shown, Human IgG1/kappa; tested as HEK293 EBNA supernatant; also called H6K5) VH: EVQLVESGGGLVQPGGSLKLSCAASGFTFSTFGIHWVRQAPGKGLEWVASISGASTTIYYADSVKGRFTISRDNSKNTLYLQMNSLRAEDTAVYYCARYGTSFPYGLDYWGQGTLVTVSS VL: DIVMTQSPDSLAVSLGERATINCKSSQSVDYDGDSYMNWYQQKPGKAPKLLIYGASNLESGIPDRFSGSGSGTDFTLTISRLEPEDAAVYYCQQSNEDPFTFGQGTKLEIKR"
  koff, s⁻¹: 0.285
- Binder: "VH6/VK3 humanized 11C12 antibody (antibody, human IgG1, kappa, V domains shown, Human IgG1/kappa; tested as HEK293 EBNA supernatant; also called H6K3) VH: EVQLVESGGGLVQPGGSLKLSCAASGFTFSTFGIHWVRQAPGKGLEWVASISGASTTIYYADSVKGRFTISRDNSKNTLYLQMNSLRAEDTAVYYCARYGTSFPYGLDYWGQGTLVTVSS VL: DIVMTQSPDSLAVSLGERATINCKASQSVDYDGDSYMNWYQQKPGKAPKLLIYGASNLESGIPDRFSGSGSGTDFTLTISRLEPEDAAVYYCQQSNEDPFTFGQGTKLEIKR"
  koff, s⁻¹: 0.341
- Binder: "VH4/VK4 humanized 11C12 antibody (antibody, human IgG1, kappa, V domains shown, Human IgG1/kappa; lead variant, tested as HEK supernatant and as protein purified from CHO; also called H4K4) VH: EVQLVESGGGLVQPGGSLKLSCAASGFTFSTFGIHWVRQAPGKGLEWVAYISGASTTIYYADTVKGRFTISRDNSKNTLYLQMNSLRAEDTAVYYCARYGTSFPYGLDYWGQGTLVTVSS VL: DIVMTQSPDSLAVSLGERATINCKSSQSVDYDGDSYMNWYQQKPGKAPKLLIYGASNLESGIPDRFSGSGSGTDFTLTISRLEPEDAASYYCQQSNEDPFTFGQGTKLEIKR"
  koff, s⁻¹: 0.0014
- Binder: "VH6/VK1 humanized 11C12 antibody (antibody, human IgG1, kappa, V domains shown, Human IgG1/kappa; tested as HEK293 EBNA supernatant; also called H6K1) VH: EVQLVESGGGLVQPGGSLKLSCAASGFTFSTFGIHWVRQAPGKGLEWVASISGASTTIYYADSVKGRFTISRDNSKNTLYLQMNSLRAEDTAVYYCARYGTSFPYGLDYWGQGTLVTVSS VL: DIVMTQSPGSLAVSLGERATINCKASQSVDYDGDSYMNWYQQKPGKAPKLLIYGASNLESGIPDRFSGSGSGTDFTLTISRLEEEDAASYYCQQSNEDPFTFGQGTKLEIKR"
  koff, s⁻¹: 0.165
- Binder: "VH5/VK4 humanized 11C12 antibody (antibody, human IgG1, kappa, V domains shown, Human IgG1/kappa; lead variant, tested as HEK supernatant and as protein purified from CHO; also called H5K4) VH: EVQLVESGGGLVQPGGSLKLSCAASGFTFSTFGIHWVRQAPGKGLEWVAYISGASTTIYYADSVKGRFTISRDNSKNTLYLQMNSLRAEDTAVYYCARYGTSFPYGLDYWGQGTLVTVSS VL: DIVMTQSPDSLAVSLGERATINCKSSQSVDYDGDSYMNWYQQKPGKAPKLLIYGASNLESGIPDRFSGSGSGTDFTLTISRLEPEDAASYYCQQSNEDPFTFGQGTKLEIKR"
  koff, s⁻¹: 0.00141

Identify measured koff corresponding to VH5/VK1 humanized 11C12 antibody (antibody, human IgG1, kappa, V domains shown, Human IgG1/kappa; tested as HEK293 EBNA supernatant; also called H5K1) VH: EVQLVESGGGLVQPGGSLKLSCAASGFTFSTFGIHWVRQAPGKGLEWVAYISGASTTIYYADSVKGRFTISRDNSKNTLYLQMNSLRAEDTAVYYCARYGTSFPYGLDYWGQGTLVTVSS VL: DIVMTQSPGSLAVSLGERATINCKASQSVDYDGDSYMNWYQQKPGKAPKLLIYGASNLESGIPDRFSGSGSGTDFTLTISRLEEEDAASYYCQQSNEDPFTFGQGTKLEIKR 0.00127

Identify measured koff corresponding to VH5/VK5 humanized 11C12 antibody (antibody, human IgG1, kappa, V domains shown, Human IgG1/kappa; tested as HEK293 EBNA supernatant; also called H5K5) VH: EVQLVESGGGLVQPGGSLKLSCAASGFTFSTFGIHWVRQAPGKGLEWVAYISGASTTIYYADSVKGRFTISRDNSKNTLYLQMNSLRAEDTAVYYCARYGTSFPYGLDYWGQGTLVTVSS VL: DIVMTQSPDSLAVSLGERATINCKSSQSVDYDGDSYMNWYQQKPGKAPKLLIYGASNLESGIPDRFSGSGSGTDFTLTISRLEPEDAAVYYCQQSNEDPFTFGQGTKLEIKR 0.0014
